Recorded below: pKi, system human factor Xa (Homo sapiens, UniProt P00742).
# reply with the number alone; pKi is -log10 of concentration in mol/L

Example compounds with recorded pKi:
COCCN(C1CCN(C(C)C)CC1)S(=O)(=O)CCNC(=O)c1ccc(Cl)s1 [Example 15]; 8.30
O=C(NCCS(=O)(=O)NC1CCN(c2ccncc2)CC1)c1ccc(Cl)s1 [Example 5]; 7.18
CC(C)N1CCC(NS(=O)(=O)C(C)CNC(=O)c2ccc(Cl)s2)CC1 (racemic) [Example 26]; 7.89

Pending compound:
Item CC(C)N1CCC(N(CCCO)S(=O)(=O)CCNC(=O)c2ccc(Cl)s2)CC1 [Example 17] with human factor Xa (Homo sapiens, UniProt P00742) - pKi? 8.40
